- assay summary: Cmax in Sprague-Dawley rat brain at 27.5 mg/kg, ip by UPLC analysis
- Type: ADME, organism-based
- Design: dose 27.5 mg/kg, route intraperitoneal
metric: Cmax (ng/g)
The reply should contain only the number, in ng/g.

**Query** # input compound: "CCCCCCCC/C=C\CCCCCCCC(=O)N[C@H](CCCCN)C(=O)O.Cl" ; wanted: its Cmax
**Result** 1850

====

- assay summary: Cmax in Sprague-Dawley rat plasma at 27.5 mg/kg, ip by UPLC analysis
- Assay type: ADME, organism-based
- Parameters: dose 27.5 mg/kg, route intraperitoneal
metric: Cmax (ng/mL)
Please respond with the number in ng/mL and leave the unit unwritten.

**Query** // lookup Cmax for "CCCCCCCC/C=C\CCCCCCCC(=O)N[C@H](CCCCN)C(=O)O.Cl"
**Result** 16700
